The values you see were collected from PubChem BioAssay (NCI).

tested on: COLO 205 colon; assay: NCI tumour cell line growth inhibition, 48 h; in the data active = GI50 below about 0.43 µM; inactive = the rest
Select the correct class. Options are True (active), False (inactive) and nothing else.

Recorded results for 2 molecules are shown here.
[
  {
    "compound structure string": "O=C1/C=C/[C@@H](O)[C@@H]2C[C@@H](O)C[C@H]2/C=C/CCCCO1",
    "class label": "True"
  },
  {
    "compound structure string": "Nc1ncnc2c1c(-c1ccc(Oc3ccccc3)cc1)nn2C[C@H]1SSC[C@H]1O",
    "class label": "False"
  }
]

Returns: the outcome recorded for `COc1cc2c(cc1OC)-c1c(c3ccc([N+](=O)[O-])cc3c(=O)n1CCCBr)C2=O` in this assay. False

Lookup `O=c1c(Br)ccc(Br)cc1Br` True

Lookup `CCOc1ccc(-n2cc(-c3ccc(N(C)C)cc3)[n+]3c2CCCCC3)cc1` True

Lookup `O=C(Nc1ccc(-n2cc(-c3ccncc3)c(-c3ccc(Cl)c(O)c3)n2)cc1)c1ccc(Cl)c(C(F)(F)F)c1` False

Lookup `COc1cc(-c2cc(C(=O)N3CCN(C(=O)c4ccccc4NCc4cccs4)CC3)nc3cc(-c4ccccc4)nn23)cc(OC)c1OC` False
